- Tested on: Hs-578T
- PROCEDURE_SUMMARY: NCI tumour cell line growth inhibition, 48 h
The source made the active and inactive calls. Cut-off read from the data, not from the text of the source: active = GI50 up to about 1.1 µM and inactive = higher.

COMPOUND: C/C(=N\n1c(Cc2ccccc2)n[nH]c1=O)c1ccccc1
GI50: > 100 µM (inactive)
--
COMPOUND: CCCNC(=O)NNC(=O)c1c[nH]c2nc(C)ccc2c1=O
GI50: > 100 µM (inactive)
--
COMPOUND: CCC1(O)CC(O)c2c(O)c3c(c(O)c2C1C(=O)OC)C(=O)c1cccc(O)c1C3=O (stereo unspecified)
GI50: 4.7 µM (inactive)
--
COMPOUND: Clc1ccc(/C=N/C23CC4CC(CC(C4)C2)C3)c(Cl)c1
GI50: > 10 µM (inactive)
--
COMPOUND: Cc1ccc(-c2cc(-c3ccc(Cl)cc3)nc(/N=C3\C(=O)N(CN4CCOCC4)c4ccccc43)n2)cc1
GI50: 22.9 µM (inactive)
--
COMPOUND: C=CC(C)CCC(C/C=C(\C)CCCC(C)C)C(=C)CCCC(C)C (stereo unspecified)
GI50: > 100 µM (inactive)
--
COMPOUND: O=S(=O)(O)c1ccc2cc(/N=N\c3cc(S(=O)(=O)O)c4cccnc4c3O)ccc2c1
GI50: > 100 µM (inactive)
--
COMPOUND: CC(=O)N1N=C(c2cc(C)ccc2O)CC1c1cccc(Cl)c1 (stereo unspecified)
GI50: 12.9 µM (inactive)
--
COMPOUND: O=C1CC2(CCC(O)(c3cccc4ccccc34)C(C(=O)c3cccc4ccccc34)C2)C(=O)c2ccccc2N1 (stereo unspecified)
GI50: 6.78 µM (inactive)
--
COMPOUND: OC[P+](CO)(CO)C12CC3CC(CC(C3)C1)C2
GI50: > 100 µM (inactive)
--
COMPOUND: Sc1ncnc2c1ncn2Cc1ccco1
GI50: > 100 µM (inactive)
